Numbers sourced from the supplement of paper PMC12338614.

B1: library; numbered along this chain (parent)
chain: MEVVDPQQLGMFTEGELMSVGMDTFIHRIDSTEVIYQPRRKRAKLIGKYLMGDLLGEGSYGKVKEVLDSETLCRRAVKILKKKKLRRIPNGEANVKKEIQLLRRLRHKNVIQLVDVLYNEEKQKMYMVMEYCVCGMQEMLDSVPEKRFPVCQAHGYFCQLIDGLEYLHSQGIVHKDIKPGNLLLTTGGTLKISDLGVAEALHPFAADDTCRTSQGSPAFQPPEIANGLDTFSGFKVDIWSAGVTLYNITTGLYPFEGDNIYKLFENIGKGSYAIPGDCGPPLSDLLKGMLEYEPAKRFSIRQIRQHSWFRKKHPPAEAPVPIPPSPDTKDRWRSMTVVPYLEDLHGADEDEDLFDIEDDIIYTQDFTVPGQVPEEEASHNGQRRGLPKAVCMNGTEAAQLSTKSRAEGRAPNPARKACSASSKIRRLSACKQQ

Variants of: B1
experiment notes: STK11 functional score (HeLa growth suppression), rescaled enrichment; synonymous median = 1, nonsense median = 0 (normalised score)
assay setup: with HeLa; variant type: missense
I'd appreciate it if you could supply STK11 functional score values for the items below.
In your answer, state the number alone without any accompanying words.

Given item S378K , the value recorded as its STK11 functional score is 1.6

Lookup result for P149N ; measured STK11 functional score: 1.38

Please fill in: STK11 functional score reported for R74A = 0.0507

Looking up E16C , I found its STK11 functional score recorded as 1.38

Record Y362W , field STK11 functional score: 1.31
